# Test system: platelets (platelet aggregation)
# test_protocol: Inhibitory activity of platelet aggregation in rats
# Format: cell-based, Wistar rats (male)
# test_conditions: rat platelet rich plasma; 100 μM adenosine 2-phosphoric acid (5 μl) induced; 37° C.; read-out: Activity Suppressing Platelet Aggregation (Rats) IC50
pIC50: −log10 of the molar value.
readout: pIC50

(P) CCCC[C@@H](C)C[C@H](O)/C=C/[C@@H]1C(SCCCCCC(=O)OC)=CC[C@H]1O [drawing 104]
(Q) CCCC[C@@H](C)C[C@H](O)/C=C/[C@@H]1C(SCCCCCC(=O)OC)=C(C)C[C@H]1O [drawing 103]
(R) CCCC[C@@H](C)C[C@H](O)/C=C/[C@@H]1C(SCCCCCC(=O)O)=CC[C@H]1O [drawing 105]
Input: Order by pIC50, smallest first, the items presented above. The response must list the labels following the requested ordering.
Output: Q, R, P

Each recorded value in this set is attributed to patent US5990346A.
